assay.details: NCI Yeast Anticancer Drug Screen. Data for the mec2-1 strain (AID 157)
assay.conditions: S. cerevisiae mec2-1 strain, at 5.0 µM (retest, dose inferred, filed as 0.5)
This is part of a sample that, as a whole, favours compounds with a hit. Of some 79,000 tested, about 15% had one in any assay. The source made the active and inactive calls. Rule as the data show it: active = growth inhibition above about 70%; inactive = the rest.
Use one of these outcomes when replying: active, inactive

Previously resolved entries follow.
## Input Test call for this compound, please: `CCC[CH2][Sn]([CH2]CCC)([O]C(=O)c1cc(F)ccc1F)[O][Sn]([CH2]CCC)([CH2]CCC)[O]C(=O)c1cc(F)ccc1F`
## Output active

## Input What call does the record list for `CCCCCCCC(=O)O[C@H]1[C@H]2[C@@H](CC1(C)C)C(=O)[C@]13O[C@H]1C(=O)[C@]1(CO1)[C@]23C` ?
## Output inactive

## Input Which outcome was assigned to CC(NNC(=S)N1CCCC1)c1ccc2ccccc2n1 (stereo not given) in this test?
## Output inactive

## Input Answer briefly: the call reported for CCC(C)CNCCCCCNc1cc(OC)cc2cccnc12 (stereo not given) in this assay.
## Output inactive

Let's switch to this compound now.
## Input Please state the recorded outcome for this compound: `CN(C)C(=S)/N=c1\ss/c(=N\C(=S)N(C)C)n1-c1ccc(Cl)cc1`
## Output inactive

---

assay.details: NCI Yeast Anticancer Drug Screen. Data for the sgs1 mgt1 strain (AID 161);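 also: 0% = growth of cultures given vehicle only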
assay.conditions: S. cerevisiae sgs1 mgt1 strain, at 5.0 µM (retest, dose inferred, filed as 0.5), active compounds read high
Procedure: Growth inhibition of yeast strains with defined genetic alterations is measured as a screen for potential anti-cancer activity. Selected strains with alterations in DNA damage repair or cell cycle control were exposed to compounds and growth inhibition was measured relative to vehicle treated controls. The strain used in this assay is sgs1 mgt1
Compounds without any hit were thinned out: in the full panel of roughly 79,000, 15% have a hit.
Everything with growth inhibition lower than 30% is condition not met; everything else, including exactly 30%, is condition met.

Study these solved cases before continuing.
## Input I'd appreciate it if you could say whether COc1ccccc1C1c2cc3c(cc2OC(N2CCOCC2)C1C)OCO3 (stereo unspecified) has growth inhibition at least equal to 30%.
## Output condition not met

## Input Could you verify whether the entry `Nc1n[nH]c(=O)c2cccnc12` shows growth inhibition of no less than 30%?
## Output condition not met

## Input Does the compound `Cc1ccc(O)c(C(C)(C)c2ccccc2)c1` have recorded growth inhibition that is 30% or more?
## Output condition not met

## Input Exam item: decide whether the reported growth inhibition for `O=C1c2ccc3c4ccccc4n(Cc4ccccc4)c3c2C(=O)N1c1ccccc1` is at least 30%.
## Output condition met

## Input Could you verify whether the entry `CCn1nc(-c2ccccc2)c2c1N(C)c1ccccc1-n1c(-c3ccccc3)nnc1-2` shows growth inhibition of no less than 30%?
## Output condition not met

New cases:
## Input Decide: is the reported value of growth inhibition for `Cc1csc2[n+]1C(=O)/C(=C\c1ccc([N+](=O)[O-])cc1)S2` equal to or greater than 30%?
## Output condition met

## Input Quick check, growth inhibition >= 30%? `Clc1ccc(CN2CCN(Cc3ccc(Cl)cc3)C2c2ccc(Cl)cc2)cc1`
## Output condition met

---

assay.details: NCI Yeast Anticancer Drug Screen. Data for the cln2 rad14 strain (AID 165);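 also: 0% = growth equal to vehicle treated cultures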
assay.conditions: S. cerevisiae cln2 rad14 strain, at 50.0 µM
This is part of a sample that, as a whole, favours compounds with a hit. Of some 79,000 tested, about 15% had one in any assay. Active and inactive are the calls of the source. Rule as the data show it: active = growth inhibition above about 70%; inactive = the rest.
Entry note: the call must match one of 1.0 (active), 0.0 (inactive)

## Input Would you mind telling me which call this test gave `O=C(N/C(=C\c1ccc(Oc2ccc(Cl)c(Cl)c2)cc1)c1nc2ccccc2[nH]1)c1ccccc1` ?
## Output 1.0

## Input For `CC(=O)SC(SC(C)=O)SC(C)=O` , what call appears in the results of this test?
## Output 1.0

## Input Which outcome was assigned to `Cc1cc(NC(=S)SCc2ccc(F)cc2)ccc1Br` in this test?
## Output 1.0

## Input Assay outcome for `O=C(O)c1c[nH]c2cc(Cl)ccc2c1=O` : what was it?
## Output 1.0

## Input Please let me know the test result on file for `CCOCCOc1ccc(OCCOCC)cc1` .
## Output 0.0

## Input Write down the call the test reported for this compound. Item: `O=[N+]([O-])c1cccc(F)c1O`
## Output 0.0

## Input Lab log entry: `COC(=O)/C=C/c1c2ccccc2cc2ccccc12` — outcome as called in the assay?
## Output 0.0

## Input // return assay outcome for Clc1ccc(OCC2CO2)c(Cl)c1 (stereo not given)
## Output 1.0

## Input I would be grateful if you could indicate the recorded call for `CCCCCCSc1nc2ccc(N=Cc3ccccc3O)cc2s1` .
## Output 0.0

## Input # fetch the recorded call for `Oc1ccc(Br)cc1C=Nc1c(NC2CCCCC2)oc2ccc(Br)cc12` here
## Output 0.0

## Input Field: outcome | Entry: `C=CC(=O)c1ccc2c(c1)OCCOCCOCCOCCOCCO2`
## Output 0.0

## Input Which result was noted for this compound in the test: `O=C(O)CCn1c2ccccc2c2ccccc21`
## Output 0.0

## Input Name the outcome recorded for CN(C)/N=C1\CC(c2ccccc2)C(C#N)(C#N)C1(C#N)C#N (stereo not given) in the assay.
## Output 1.0

## Input Can you look up the reported call for `CCc1n[nH]c(CC)c1CCCCCCOc1ccc(OC)cc1Cl` for me?
## Output 1.0

## Input // return assay outcome for `COc1ccc(C2=C(Cl)C(=O)N(c3ccc(C)cc3)C(=O)C2(Cl)Cl)cc1`
## Output 0.0

## Input What classification did CNCC(O)c1cccc(O)c1 (stereo not given) end up with in this test?
## Output 0.0

## Input Call for entry `Cc1cc(O)c(/C=N/c2nc(-c3cccc([N+](=O)[O-])c3)cs2)c(=O)o1` :
## Output 0.0

## Input // outcome(item) with item = `CC(=O)Oc1ccc(-c2ccc(Br)cc2)cc1`
## Output 1.0
